Values from patent US5916906A

experiment: Plasma pharmacokinetics of nicotinylalanine after i.v., i.p. and oral administration; assay type: in vivo, C57BL/6 mice; conditions: mouse, plasma, iv; NAL 400 mg/kg, i.v., fasted female mice; read-out: Vdss
Measurement name: Vd (L/kg)
Write the number in L/kg without appending the unit.

Query block: Please look at this compound and report its Vd: NC(CC(=O)c1cccnc1)C(=O)O (racemic) [NAL, γ-(3-pyridyl)-γ-oxo-α-aminobutyrate]
Result block: 1.33

----------
Assay: Plasma pharmacokinetics of nicotinylalanine after i.v., i.p. and oral administration
Format: in vivo, C57BL/6 mice
Details: mouse, plasma, ip, 400 mg/kg, NAL 400 mg/kg, i.p., fasted female mice; read-out: t1/2
Protocol: The purpose of this study was to determine the plasma pharmacokinetics of nicotinylalanine in fasted, female C57BL/6 mice after intravenous (i.v.), intraperitoneal (i.p.), and oral (p.o.) administration of equivalent doses of nicotinylalanine at 400 mg/kg body weight. The analytic methods used in these studies were the same as described in Example 1 and Table 1 for Metabolic Studies. […]
Measurement name: half-life (min)
Numeric answer only, unit min assumed.

Query block: Supply recorded half-life for NC(CC(=O)c1cccnc1)C(=O)O (racemic) [NAL, γ-(3-pyridyl)-γ-oxo-α-aminobutyrate] here.
Result block: 24.9

----------
assay: Plasma pharmacokinetics of nicotinylalanine after i.v., i.p. and oral administration; assay type: in vivo, C57BL/6 mice; details: mouse, plasma, po, 400 mg/kg, oral dose; read-out: fraction bioavailable (F)
Measurement name: bioavailability

Query block: Read the entry NC(CC(=O)c1cccnc1)C(=O)O (racemic) [NAL, γ-(3-pyridyl)-γ-oxo-α-aminobutyrate] and write its reported bioavailability.
Result block: ~100%

----------
assay: Plasma pharmacokinetics of nicotinylalanine after i.v., i.p. and oral administration; assay type: in vivo, C57BL/6 mice; conditions: mouse, plasma, ip, 400 mg/kg, NAL 400 mg/kg, i.p., fasted female mice; read-out: F (fraction bioavailable)
Measurement name: bioavailability (%)
# output: bare number, implied unit %

Query block: Please indicate bioavailability recorded for NC(CC(=O)c1cccnc1)C(=O)O (racemic) [NAL, γ-(3-pyridyl)-γ-oxo-α-aminobutyrate]
Result block: 183

----------
assay: Plasma pharmacokinetics of nicotinylalanine after i.v., i.p. and oral administration; assay type: in vivo, C57BL/6 mice; details: mouse, plasma, ip, 400 mg/kg, i.p.; read-out: t1/2 (half-life of plasma nicotinylalanine)
Measurement name: half-life

Query block: Identify half-life associated with the molecule NC(CC(=O)c1cccnc1)C(=O)O (racemic) [NAL, γ-(3-pyridyl)-γ-oxo-α-aminobutyrate]
Result block: ~25 min

----------
assay: Plasma pharmacokinetics of nicotinylalanine after i.v., i.p. and oral administration; assay type: in vivo, C57BL/6 mice; details: mouse, plasma, po, 400 mg/kg, oral; read-out: t1/2 (half-life of plasma nicotinylalanine)
Measurement name: half-life

Query block: Please list half-life recorded for the compound NC(CC(=O)c1cccnc1)C(=O)O (racemic) [NAL, γ-(3-pyridyl)-γ-oxo-α-aminobutyrate]
Result block: ~1 h

----------
experiment: Plasma pharmacokinetics of nicotinylalanine after i.v., i.p. and oral administration; type: in vivo, C57BL/6 mice; conditions: mouse, plasma, iv, 400 mg/kg, NAL 400 mg/kg, i.v., fasted female mice; read-out: t1/2
Measurement name: half-life (min)
Report the figure in min without appending any unit label.

Query block: Determine its reported half-life: NC(CC(=O)c1cccnc1)C(=O)O (racemic) [NAL, γ-(3-pyridyl)-γ-oxo-α-aminobutyrate]
Result block: 40.2

----------
test: Plasma pharmacokinetics of nicotinylalanine after i.v., i.p. and oral administration; assay type: in vivo, C57BL/6 mice; details: mouse, plasma, iv, 400 mg/kg; read-out: Time of peak plasma level of NAL (converted)
Measurement name: Tmax

Query block: Return value of Tmax for input NC(CC(=O)c1cccnc1)C(=O)O (racemic) [NAL, γ-(3-pyridyl)-γ-oxo-α-aminobutyrate] , no commentary.
Result block: ~5 min

----------
assay: Plasma pharmacokinetics of nicotinylalanine after i.v., i.p. and oral administration; format: in vivo, C57BL/6 mice; details: mouse, plasma; oral gavage, 400 mg/kg; read-out: Time of peak plasma level of NAL (converted)
Measurement name: Tmax

Query block: For NC(CC(=O)c1cccnc1)C(=O)O (racemic) [NAL, γ-(3-pyridyl)-γ-oxo-α-aminobutyrate] , write its Tmax.
Result block: ~10 min

----------
assay: Plasma pharmacokinetics of nicotinylalanine after i.v., i.p. and oral administration; format: in vivo, C57BL/6 mice; settings: mouse, plasma, po; NAL 400 mg/kg, p.o., fasted female mice; read-out: Vdss
Measurement name: Vd/F (L/kg)
Numbers only here, please. The scale is L/kg.

Query block: Look up and report measured Vd/F for this entry: NC(CC(=O)c1cccnc1)C(=O)O (racemic) [NAL, γ-(3-pyridyl)-γ-oxo-α-aminobutyrate]
Result block: 3.35

----------
test: Plasma pharmacokinetics of nicotinylalanine after i.v., i.p. and oral administration; type: in vivo, C57BL/6 mice; details: mouse, plasma, iv; NAL 400 mg/kg, i.v., fasted female mice; read-out: Ke (converted)
Measurement name: k el (s⁻¹)
Give just the number in s⁻¹; leave the unit off.

Query block: Respond only with k el recorded for NC(CC(=O)c1cccnc1)C(=O)O (racemic) [NAL, γ-(3-pyridyl)-γ-oxo-α-aminobutyrate]
Result block: 0.000287

----------
test: Plasma pharmacokinetics of nicotinylalanine after i.v., i.p. and oral administration; format: in vivo, C57BL/6 mice; settings: mouse, plasma, ip, 400 mg/kg; read-out: Time of peak plasma level of NAL (converted)
Measurement name: Tmax

Query block: State its Tmax for this molecule: NC(CC(=O)c1cccnc1)C(=O)O (racemic) [NAL, γ-(3-pyridyl)-γ-oxo-α-aminobutyrate]
Result block: ~5 min

----------
assay: Plasma pharmacokinetics of nicotinylalanine after i.v., i.p. and oral administration; type: in vivo, C57BL/6 mice; details: mouse, plasma, ip; NAL 400 mg/kg, i.p., fasted female mice; read-out: Ke (converted)
Measurement name: k el (s⁻¹)
State just the number; it will be interpreted in s⁻¹.

Query block: Return value of k el for input NC(CC(=O)c1cccnc1)C(=O)O (racemic) [NAL, γ-(3-pyridyl)-γ-oxo-α-aminobutyrate] , no commentary.
Result block: 0.000463

----------
experiment: Plasma pharmacokinetics of nicotinylalanine after i.v., i.p. and oral administration; type: in vivo, C57BL/6 mice; conditions: mouse, plasma, po, 400 mg/kg, NAL 400 mg/kg, p.o., fasted female mice; read-out: F (fraction bioavailable)
Measurement name: bioavailability (%)
Note: unit % is implicit; provide only the numeric part.

Query block: Answer with the recorded bioavailability of NC(CC(=O)c1cccnc1)C(=O)O (racemic) [NAL, γ-(3-pyridyl)-γ-oxo-α-aminobutyrate] only.
Result block: 105

----------
assay: Plasma pharmacokinetics of nicotinylalanine after i.v., i.p. and oral administration; type: in vivo, C57BL/6 mice; settings: mouse, plasma, ip; NAL 400 mg/kg, i.p., fasted female mice; read-out: Vdss
Measurement name: Vd/F (L/kg)
Output spec: scalar in L/kg, unitless text.

Query block: For the compound NC(CC(=O)c1cccnc1)C(=O)O (racemic) [NAL, γ-(3-pyridyl)-γ-oxo-α-aminobutyrate] , give its measured Vd/F value.
Result block: 0.821

----------
experiment: Plasma pharmacokinetics of nicotinylalanine after i.v., i.p. and oral administration; type: in vivo, C57BL/6 mice; conditions: mouse, plasma, iv; NAL 400 mg/kg, fasted female mice
Measurement name: clearance (mL/min/kg)
Please state the figure in mL/min/kg; there is no need to write the unit.

Query block: Query clearance for NC(CC(=O)c1cccnc1)C(=O)O (racemic) [NAL, γ-(3-pyridyl)-γ-oxo-α-aminobutyrate]
Result block: 57.3
